Cited source: PubChem BioAssay (NCI)

Listed molecules paired with reported TGI
Test system: MCF7 breast
Assay: NCI tumour cell line growth inhibition, 48 h

MOLECULE: CCOC(=O)c1ccccc1NC(c1ccccc1)c1ccc2cccnc2c1O (stereo not given)
TGI: 45 µM
--
MOLECULE: c1ccc(C2(c3cc4ccccc4[nH]3)OCCO2)cc1
TGI: > 100 µM
--
MOLECULE: COc1ccc(C(=O)CC(Cl)=C(Cl)Cl)cc1
TGI: > 100 µM
--
MOLECULE: N#Cc1ccc(/C=C2\Cc3ccccc3C2=O)cc1
TGI: > 100 µM
--
MOLECULE: COc1cccc(C(=O)C(O)c2cccc(OC)c2OC)c1OC (stereo not given)
TGI: > 100 µM
--
MOLECULE: CC(C)(Oc1ccc(C2C[C@H]2Cl)cc1)C(=O)O (stereo not given in full)
TGI: > 100 µM
--
MOLECULE: CC(=O)OC1C(OC/C2=C/C3[C@@H](C(C)C)CC=C(C)[C@@H]3CC(OC(=O)/C=C/c3cn(C)cn3)[C@]3(C)C=C[C@@]2(O)O3)OCC(O)C1O (stereo not given in full)
TGI: > 50 µM
--
MOLECULE: COc1ccc(C2CC(c3cccc(Nc4ccnc5cc(Cl)ccc45)c3)=NN2c2ccc(Cl)cc2)cc1 (stereo not given)
TGI: 44.3 µM
--
MOLECULE: COC[C@@H](N=Cc1ccc(OC)cc1)C(C)C
TGI: > 100 µM
--
MOLECULE: CC(=S)NC1C(Oc2ccc3c(C)cc(=O)oc3c2)OC(CO)C(O)C1O (stereo not given)
TGI: > 100 µM
